- target.under.test: purified DHFR of the multiresistant strain S. aureus 157/4696 (Staphylococcus aureus, UniProt P0A017)
- assay.explanation: Inhibition of purified bacterial dihydrofolate reductase (method of Baccanari and Joyner)
- run.parameters: read-out: IC50 values S.aureus 157/4696, IC50 determined by means of a graph
measure.name: pIC50
Recall that pIC50 is obtained by taking minus log10 of the concentration measured in molar.

Query :: Provide measured pIC50 value, entry: COc1cc(Cc2cnc(N)nc2N)cc(/C=C/C(=O)N2N=Cc3ccccc3C2c2ccco2)c1OC (racemic)
Result :: 8.10

Query :: Provide measured pIC50 value, entry: COc1cc(Cc2cnc(N)nc2N)cc(/C=C/C(=O)N2N=Cc3ccccc3C2c2cnc(C)nc2)c1OC (racemic)
Result :: 9.22

Query :: Provide measured pIC50 value, entry: COc1cc(Cc2cnc(N)nc2N)cc(/C=C/C(=O)N2N=Cc3ccccc3C2c2ccc(CO)cc2)c1OC (racemic)
Result :: 9.00

Query :: Provide measured pIC50 value, entry: COc1cc(Cc2cnc(N)nc2N)cc(/C=C/C(=O)N2N=Cc3ccccc3C2c2ccc(C)nc2)c1OC (racemic)
Result :: 9.40

Query :: Provide measured pIC50 value, entry: COc1cc(Cc2cnc(N)nc2N)cc(/C=C/C(=O)N2N=Cc3ccccc3C2CCCCO)c1OC (racemic)
Result :: 8.52

Query :: Provide measured pIC50 value, entry: COc1cc(Cc2cnc(N)nc2N)cc(/C=C/C(=O)N2N=Cc3ccccc3C2c2ccccc2)c1OC (racemic)
Result :: 8.70

Query :: Provide measured pIC50 value, entry: CCC1c2ccccc2C=NN1C(=O)/C=C/c1cc(Cc2cnc(N)nc2N)cc(OC)c1OC (racemic)
Result :: 7.92

---

- target.under.test: purified DHFR of the reference strain S. aureus ATCC 25923 (Staphylococcus aureus)
- assay.explanation: Inhibition of purified bacterial dihydrofolate reductase (method of Baccanari and Joyner)
measure.name: pIC50
Recall that pIC50 is obtained by taking minus log10 of the concentration measured in molar.

Query :: Provide measured pIC50 value, entry: COc1cc(Cc2cnc(N)nc2N)cc(/C=C/C(=O)N2N=Cc3ccccc3C2c2ccc(C)nc2)c1OC (racemic)
Result :: 9.40

Query :: Provide measured pIC50 value, entry: COc1cc(Cc2cnc(N)nc2N)cc(/C=C/C(=O)N2N=Cc3ccccc3C2c2cnc(C)nc2)c1OC (racemic)
Result :: 9.22

Query :: Provide measured pIC50 value, entry: CCc1ccc(C2c3ccccc3C=NN2C(=O)/C=C/c2cc(Cc3cnc(N)nc3N)cc(OC)c2OC)cn1 (racemic)
Result :: 9.52

---

Provide the reported IC50 of each item.
- target.under.test: purified DHFR of the reference strain S. aureus ATCC 25923 (Staphylococcus aureus, UniProt P0A017)
- assay.explanation: Inhibition of purified bacterial dihydrofolate reductase (method of Baccanari and Joyner)
Hi! Could you send only the number? It should be in nM, unit omitted.

Query :: Provide measured IC50 value, entry: COc1cc(Cc2cnc(N)nc2N)cc(/C=C/C(=O)N2N=Cc3ccccc3C2c2ccc(CO)cc2)c1OC (racemic)
Result :: 1

Query :: Provide measured IC50 value, entry: CCCC1c2ccccc2C=NN1C(=O)/C=C/c1cc(Cc2cnc(N)nc2N)cc(OC)c1OC (racemic)
Result :: 2

Query :: Provide measured IC50 value, entry: `COc1cc(Cc2cnc(N)nc2N)cc(/C=C/C(=O)N2N=Cc3ccccc3[C@@H]2c2ccc(C)nc2)c1OC`
Result :: 0.3

Query :: Provide measured IC50 value, entry: COc1cc(Cc2cnc(N)nc2N)cc(/C=C/C(=O)N2N=Cc3ccccc3C2c2ccc(O)cc2)c1OC (racemic)
Result :: 2

Query :: Provide measured IC50 value, entry: CCC1c2ccccc2C=NN1C(=O)/C=C/c1cc(Cc2cnc(N)nc2N)cc(OC)c1OC (racemic)
Result :: 2

Query :: Provide measured IC50 value, entry: COc1cc(Cc2cnc(N)nc2N)cc(/C=C/C(=O)N2N=Cc3ccccc3C2c2ccccc2)c1OC (racemic)
Result :: 2

Query :: Provide measured IC50 value, entry: COc1cc(Cc2cnc(N)nc2N)cc(/C=C/C(=O)N2N=Cc3ccccc3C2CCCCO)c1OC (racemic)
Result :: 1

Query :: Provide measured IC50 value, entry: COc1cc(Cc2cnc(N)nc2N)cc(/C=C/C(=O)N2N=Cc3ccccc3C2c2ccco2)c1OC (racemic)
Result :: 2

Reference source for all entries: patent EP0966464B1
